Where do these numbers come from? They come from the supplement of paper PMC6555819.

# Tested on: RARb homodimer (NR concentration 270 nM)
# Assay Remarks: PBM binding z-score (relative to random genomic background probes); higher = stronger binding; sequences stand for … in GC…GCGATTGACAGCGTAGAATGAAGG
Use true (1) when the recorded PBM binding z-score is no lower than 0.6; use false (0) when it is lower.

Please review the following examples before continuing.
Sequence Content	Class Name
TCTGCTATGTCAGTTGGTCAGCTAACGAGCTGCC	false (0)
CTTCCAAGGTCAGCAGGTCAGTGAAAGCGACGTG	true (1)
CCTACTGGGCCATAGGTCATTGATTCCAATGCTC	true (1)
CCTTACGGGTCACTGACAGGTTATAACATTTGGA	true (1)
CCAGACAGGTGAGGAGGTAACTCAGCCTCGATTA	true (1)
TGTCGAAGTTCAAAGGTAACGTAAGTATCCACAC	true (1)
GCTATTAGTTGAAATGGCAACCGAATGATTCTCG	false (0)
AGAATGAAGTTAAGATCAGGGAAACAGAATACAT	false (0)
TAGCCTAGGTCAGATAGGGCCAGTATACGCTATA	true (1)
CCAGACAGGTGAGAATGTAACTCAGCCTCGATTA	false (0)

Ask: Say whether "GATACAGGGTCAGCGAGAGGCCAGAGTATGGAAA" shows PBM binding z-score of 0.6 or more.
Result: true (1)

Ask: Same lookup for "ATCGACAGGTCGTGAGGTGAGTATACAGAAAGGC" , please.
Result: true (1)

Ask: Subsequent entry: "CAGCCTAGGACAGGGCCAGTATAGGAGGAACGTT"
Result: false (0)

Ask: Would you mind doing "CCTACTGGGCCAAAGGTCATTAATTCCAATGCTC" as well?
Result: true (1)

Ask: What would you report for "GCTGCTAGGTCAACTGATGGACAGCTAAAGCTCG" ?
Result: true (1)

Ask: Same question for "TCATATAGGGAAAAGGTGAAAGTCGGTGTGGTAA" please.
Result: true (1)

Ask: Query "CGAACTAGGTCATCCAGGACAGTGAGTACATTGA" next
Result: true (1)

Ask: Quick one: "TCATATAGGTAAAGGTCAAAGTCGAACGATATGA"
Result: true (1)

Ask: Try this sequence too: "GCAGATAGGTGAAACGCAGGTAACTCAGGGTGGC"
Result: false (0)

Ask: Thanks! And "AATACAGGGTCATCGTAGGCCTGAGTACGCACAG" ?
Result: true (1)

Ask: Now consider "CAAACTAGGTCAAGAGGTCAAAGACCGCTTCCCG" .
Result: true (1)

* * *

# Test system: FXR:RXRa (NR concentration 270 nM, RXRa partner concentration 90 nM)
# Assay Remarks: PBM binding z-score (relative to random genomic background probes); higher = stronger binding; sequences stand for … in GC…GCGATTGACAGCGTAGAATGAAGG
Think of 5 as a floor: if PBM binding z-score stands on it or above, it is TRUE; beneath it, FALSE.

Ask: # check: PBM binding z-score of "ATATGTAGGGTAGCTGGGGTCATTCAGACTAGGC" is greater than or equal to 5
Result: FALSE

Ask: Same question, "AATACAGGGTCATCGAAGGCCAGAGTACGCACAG" this time
Result: TRUE

Ask: For "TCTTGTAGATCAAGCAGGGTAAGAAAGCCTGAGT" then?
Result: FALSE

* * *

# System: THRa homodimer (NR concentration 90 nM)
# Assay Remarks: PBM binding z-score (relative to random genomic background probes); higher = stronger binding; sequences stand for … in GC…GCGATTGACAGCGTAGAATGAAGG
Parameter: PBM binding z-score. Scope: all listed entries.
Please give the numeric answer without any surrounding text.

Example entries begin here.
Sequence Content	Number
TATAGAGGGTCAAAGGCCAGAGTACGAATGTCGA	-0.0967
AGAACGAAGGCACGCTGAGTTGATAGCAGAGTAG	-1.12
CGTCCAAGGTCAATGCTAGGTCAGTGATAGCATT	3.02

Ask: Query for THRa homodimer (NR concentration 90 nM): what PBM binding z-score does the record show for "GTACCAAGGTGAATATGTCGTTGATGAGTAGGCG" ?
Result: 0.837

Ask: Then this sequence: "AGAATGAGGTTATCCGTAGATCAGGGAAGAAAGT"
Result: 0.663

Ask: Okay, and "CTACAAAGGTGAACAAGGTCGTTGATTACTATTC" ?
Result: 1.37

* * *

# Test system: PPARg:RXRa 270nM:90nM, anti-RXR (NR concentration 270 nM, RXRa partner concentration 90 nM)
# Assay Remarks: PBM binding z-score (relative to random genomic background probes); higher = stronger binding; sequences stand for … in GC…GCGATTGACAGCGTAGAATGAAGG
Quick rule: PBM binding z-score of at least 5 means 1, below that means 0.

Below, 5 sequences whose answers are already recorded.
Sequence Content	Class Name
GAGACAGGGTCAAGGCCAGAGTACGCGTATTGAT	0
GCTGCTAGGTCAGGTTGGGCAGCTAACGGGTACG	0
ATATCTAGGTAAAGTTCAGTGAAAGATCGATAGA	1
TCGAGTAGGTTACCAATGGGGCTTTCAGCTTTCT	0
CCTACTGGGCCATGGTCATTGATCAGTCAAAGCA	0

Then this sequence:
Ask: hey, is PBM binding z-score for this one >= 5? "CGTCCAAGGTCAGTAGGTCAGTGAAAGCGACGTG"
Result: 1

* * *

# System: LXRb:RXRa (NR concentration 270 nM, RXRa partner concentration 90 nM)
# Assay Remarks: PBM binding z-score (relative to random genomic background probes); higher = stronger binding; sequences stand for … in GC…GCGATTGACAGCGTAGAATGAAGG
Mark 0 (no) for PBM binding z-score values under 1, and 1 (yes) for everything at or above.

Below are worked cases with known answers.
Sequence Content	Study Target	Class Name
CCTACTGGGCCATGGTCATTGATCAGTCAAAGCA	LXRb:RXRa (NR concentration 270 nM, RXRa partner concentration 90 nM)	0 (no)
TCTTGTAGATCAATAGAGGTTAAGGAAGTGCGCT	LXRb:RXRa (NR concentration 270 nM, RXRa partner concentration 90 nM)	1 (yes)
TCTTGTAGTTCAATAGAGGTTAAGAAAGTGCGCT	LXRb:RXRa (NR concentration 270 nM, RXRa partner concentration 90 nM)	1 (yes)

Consider now this further sequence.
Ask: Record "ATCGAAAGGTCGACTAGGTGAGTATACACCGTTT" ; criterion: PBM binding z-score no lower than 1. Met?
Result: 1 (yes)

* * *

# Tested on: RARb homodimer (NR concentration 270 nM)
# Assay Remarks: PBM binding z-score (relative to random genomic background probes); higher = stronger binding; sequences stand for … in GC…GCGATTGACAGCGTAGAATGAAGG
Quantity Kind: PBM binding z-score
A bare number is all that is needed in reply.

Use the examples below as a reference point.
Sequence Content	PBM binding z-score
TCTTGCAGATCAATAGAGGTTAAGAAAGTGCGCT	1.01
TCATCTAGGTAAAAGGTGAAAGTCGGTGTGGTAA	2.04
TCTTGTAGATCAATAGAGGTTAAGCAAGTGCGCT	1.25

Ask: # lookup: PBM binding z-score of "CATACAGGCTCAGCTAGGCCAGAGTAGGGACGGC"
Result: -0.642

* * *

# System: VDR homodimer (NR concentration 270 nM)
# Assay Remarks: PBM binding z-score (relative to random genomic background probes); higher = stronger binding; sequences stand for … in GC…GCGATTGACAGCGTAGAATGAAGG
Quantity Kind: PBM binding z-score
Answer using only a numeral; do not append any unit.

Sequence Content	Study Target	Number
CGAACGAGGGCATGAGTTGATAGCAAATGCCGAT	VDR homodimer (NR concentration 270 nM)	2.02
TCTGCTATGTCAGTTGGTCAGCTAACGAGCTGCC	VDR homodimer (NR concentration 270 nM)	-0.982
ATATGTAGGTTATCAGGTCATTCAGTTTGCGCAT	VDR homodimer (NR concentration 270 nM)	3.81
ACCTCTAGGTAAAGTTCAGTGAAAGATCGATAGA	VDR homodimer (NR concentration 270 nM)	1.51
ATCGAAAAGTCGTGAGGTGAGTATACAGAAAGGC	VDR homodimer (NR concentration 270 nM)	-0.0663

Ask: Form field: PBM binding z-score recorded for "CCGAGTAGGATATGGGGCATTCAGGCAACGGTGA" with VDR homodimer (NR concentration 270 nM) (enter value)
Result: -0.318

Ask: Quick one: "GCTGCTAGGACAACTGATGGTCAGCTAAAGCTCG"
Result: -1.49

Ask: How about "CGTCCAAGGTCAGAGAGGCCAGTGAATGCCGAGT" ?
Result: 2.3

Ask: Same question, "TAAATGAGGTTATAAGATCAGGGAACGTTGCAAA" this time
Result: 0.859

Ask: Try "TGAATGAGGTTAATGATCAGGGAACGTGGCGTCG" next.
Result: 0.544
